The measurements presented in this section are drawn from patent US20230099344A1.

Would you kindly list Dmax for each of these compounds?
system.name: IRAK-4 (Homo sapiens, UniProt Q9NWZ3)
Sequence (Q9NWZ3 whole entry): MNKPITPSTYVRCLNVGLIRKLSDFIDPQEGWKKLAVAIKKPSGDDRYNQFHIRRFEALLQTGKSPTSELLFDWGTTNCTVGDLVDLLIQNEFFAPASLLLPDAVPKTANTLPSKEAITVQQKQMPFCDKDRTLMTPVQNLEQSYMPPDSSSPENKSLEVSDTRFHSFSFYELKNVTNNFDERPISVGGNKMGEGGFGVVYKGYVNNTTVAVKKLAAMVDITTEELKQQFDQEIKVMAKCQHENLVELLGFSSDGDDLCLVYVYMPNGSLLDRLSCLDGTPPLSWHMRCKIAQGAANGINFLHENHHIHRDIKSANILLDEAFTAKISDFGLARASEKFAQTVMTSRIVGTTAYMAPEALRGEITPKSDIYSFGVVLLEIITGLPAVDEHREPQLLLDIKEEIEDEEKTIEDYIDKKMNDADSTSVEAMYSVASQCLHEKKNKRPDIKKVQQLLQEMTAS
protocol.notes: IRAK-4 ELISA, PBMC degradation
Assay type: cell-based
Set-up: endogenous in cells; host or cells: PBMC
run.conditions: treated overnight

Lookup: Write down Dmax measured for item CN(C1CCN(c2ccc3c(c2)C(=O)N(C2CCC(=O)NC2=O)C3=O)CC1)[C@H]1CC[C@H](n2cc3cc(NC(=O)c4cnn5cccnc45)c(OCC(F)F)cc3n2)CC1 (some centres unmarked)
Found: < 70%

Lookup: Could you please provide reported Dmax for O=C1CCC(NC(=O)c2ccc(N3CC(CN4CCC(n5cc6cc(NC(=O)c7cnn8cccnc78)c(OCC7CC7)cc6n5)CC4)C3)cc2F)C(=O)N1 (centres unmarked) ? Thanks!
Found: ≥ 90%

Lookup: Give me measured Dmax, please, for this compound: O=C1CCC(N2Cc3cc(N4CC(N5CCC(N6Cc7cc(NC(=O)c8cnn9cccnc89)c(N8CCC(N9CCC9)CC8)cc7C6=O)CC5)C4)ccc3C2=O)C(=O)N1 (centres unmarked)
Found: ≥ 90%

Lookup: Write down Dmax measured for item CC(C)Oc1cc2nn(C3CCN(CC4(C)CN(c5ccc6c(c5)C(=O)N(C5CCC(=O)NC5=O)C6=O)C4)CC3)cc2cc1NC(=O)c1cnn2cccnc12 (centres unmarked)
Found: 80 to 90%

Lookup: Give a short answer stating reported Dmax for O=C1CCC(N2C(=O)c3ccc(N4CCN(C[C@H]5CC[C@H](N6Cc7cc(NC(=O)c8cnn9cccnc89)c(N8CCN(CC(F)F)CC8)cc7C6=O)CC5)CC4)cc3C2=O)C(=O)N1 (some centres unmarked) .
Found: ≥ 90%

Lookup: Let me know recorded Dmax for O=C1CCC(N2C(=O)c3ccc(N4CCC5(CC4)CN([C@H]4CC[C@H](n6cc7cc(NC(=O)c8cnn9cccnc89)c(OCC8CC8)cc7n6)CC4)C5)cc3C2=O)C(=O)N1 (some centres unmarked) , thanks.
Found: 80 to 90%

Lookup: Specify reported Dmax for the compound shown: O=C1CCC(N2C(=O)c3ccc(N4CCC(CN5CCC(N6Cc7cc(NC(=O)c8cnn9cccnc89)c(N8CCC(N9CCC9)CC8)cc7C6=O)CC5)CC4)cc3C2=O)C(=O)N1 (centres unmarked)
Found: ≥ 90%

Lookup: Identify Dmax associated with the compound CC(C)Oc1cc2c(cc1NC(=O)c1cnn3cccnc13)CN(C1CCN(CC3CCN(c4ccc(F)c(C(=O)NC5CCC(=O)NC5=O)c4)CC3)CC1)C2=O (centres unmarked)
Found: 80 to 90%

Lookup: Answer with the recorded Dmax of CC(C)Oc1cc2c(cc1NC(=O)c1cnn3cc(Cl)cnc13)CN(C1CCN(CC3CCN(c4ccc5c(c4)C(=O)N(C4CCC(=O)NC4=O)C5=O)CC3)CC1)C2=O (centres unmarked) only.
Found: ≥ 90%

Lookup: Report measured Dmax; entry is O=C1CCC(N2Cc3cc(N4CCC(CN5CCC(N6Cc7cc(NC(=O)c8cnn9cccnc89)c(N8CCN(C9CC(F)(F)C9)CC8)cc7C6=O)CC5)CC4)ccc3C2=O)C(=O)N1 (centres unmarked)
Found: ≥ 90%

Lookup: For the compound COc1c(N2CC(F)(CN3CCC(n4cc5cc(NC(=O)c6cnn7cccnc67)c(OCC6CC6)cc5n4)CC3)C2)ccc2c1C(=O)N(C1CCC(=O)NC1=O)C2=O (centres unmarked) , report Dmax.
Found: < 70%
